Entries and their melting point values follow.

compound="COC(=O)C1=C(CCc2nccs2)NC(CC(=O)N2CCC(C3(CNC(C)=O)CCCCC3)CC2)=C(C(=O)OC)C1c1c(Cl)cccc1Cl (stereo not drawn) [Example 44]" assay_readout="melting point" assay_value="114 to 116 °C (dec.)"
compound="CCNCC(C)(C)CN1CCN(C(=O)CC2=C(C(=O)OC)C(c3c(Cl)cccc3Cl)C(C(=O)OC)=C(CCc3nccs3)N2)CC1 (stereo not drawn) [Example 19]" assay_readout="melting point" assay_value="154 to 157 °C"

Ask | Can you share its melting point? I mean this compound: COC(=O)C1=C(CCc2nccs2)NC(CC(=O)N2CCN(CC(C)(C)CNS(C)(=O)=O)CC2)=C(C(=O)OC)C1c1c(Cl)cccc1Cl (stereo not drawn) [Example 13]
Reply | 132 to 136 °C

The origin of these recorded values is patent US6444677B2.
